As shown below, each of these sequences has a reported protein stability index value.
# Test system: Saccharomyces cerevisiae
# assay procedure: protein stability index of tFT-peptide fusion (C-terminal peptide) (PSI (0-1 scale)); higher = more stable (slower turnover);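 further: PSI is a weighted mean of sequencing reads over stability bins, variants kept only with over 10 reads, mCherry proximal and sfGFP distal, peptide attached via GGGS linker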
# condition details: genetic background: wild type; temperature: 30 C
quantity name: protein stability index

# residue sequence, experimental value
data = [
    ("PPPPLRSPPRSF", 0.713),
    ("PASSAPLSLLPC", 0.655),
    ("VPPPTRRTPPAP", 0.734),
    ("PPPPPLLPPPPA", 0.721),
    ("KFKREKKKINKR", 0.694),
    ("PPPSLPFPPPHP", 0.683),
    ("SSAGEVAFVAGT", 0.689),
    ("VFFVTSCWVFRG", 0.179),
    ("PQPLESTVDHRL", 0.719),
    ("RLSSFDELSDVY", 0.729),
]

----------
As shown below, each of these sequences has a reported protein stability index value.
# Tested on: Saccharomyces cerevisiae
# assay procedure: protein stability index of tFT-peptide fusion (C-terminal peptide) (PSI (0-1 scale)); higher = more stable (slower turnover)
# condition details: genetic background: wild type; temperature: 30 C
quantity name: protein stability index

# residue sequence, quantity name, experimental value
data = [
    ("TLSTSPPPCHPL", "protein stability index", 0.667),
    ("KNWRMKKDHKQA", "protein stability index", 0.657),
    ("TSPPPPSRPPSH", "protein stability index", 0.691),
    ("LQPLPPYHSIQL", "protein stability index", 0.703),
    ("FSACSGSHVEVW", "protein stability index", 0.695),
    ("GQRIKWGPIYLT", "protein stability index", 0.249),
    ("GTDWRDKADLRG", "protein stability index", 0.707),
    ("GILPIYNIISRL", "protein stability index", 0.553),
    ("PTGYPGPRMMVW", "protein stability index", 0.771),
    ("TSPLSPSGPQSS", "protein stability index", 0.86),
    ("HPATPPPLLPPL", "protein stability index", 0.745),
    ("GLASFVMQVAPF", "protein stability index", 0.705),
    ("AEERATKNGARQ", "protein stability index", 0.67),
    ("VVSHRGVGKGEG", "protein stability index", 0.607),
    ("KIKDKKNKQKKH", "protein stability index", 0.709),
    ("VRKKRKKELAKV", "protein stability index", 0.794),
    ("PPSVLPLPPSLP", "protein stability index", 0.732),
    ("PLTVPLPSPRLI", "protein stability index", 0.645),
    ("PPLLAPPTPLPQ", "protein stability index", 0.674),
    ("VGPVGSVGVGGR", "protein stability index", 0.654),
    ("SPVSPPLVRPPY", "protein stability index", 0.642),
    ("YIVARMVRAVIP", "protein stability index", 0.741),
    ("WWDCAVWVRCGG", "protein stability index", 0.471),
    ("PLSPSPPPASLL", "protein stability index", 0.702),
    ("PPLAPPTPHPLS", "protein stability index", 0.716),
    ("GAVTWGGAGVGV", "protein stability index", 0.694),
    ("GWWCAGVREWTR", "protein stability index", 0.8),
    ("LPCRRPTPPFPQ", "protein stability index", 0.752),
    ("INKRDARIHLLM", "protein stability index", 0.47),
    ("SPHTRPDPPPLP", "protein stability index", 0.681),
    ("CGQKREFKEGGG", "protein stability index", 0.634),
    ("MGGGGGLGGGDG", "protein stability index", 0.613),
    ("KAGVGAFLEPRS", "protein stability index", 0.713),
    ("SPPRSPPTFPPC", "protein stability index", 0.704),
    ("AKRRTNRLHCNA", "protein stability index", 0.643),
    ("TPWLRGVVGPGS", "protein stability index", 0.671),
    ("PSRTTPARPPLT", "protein stability index", 0.662),
    ("SSRLALVLLPPG", "protein stability index", 0.649),
    ("FVLATGVLLQQG", "protein stability index", 0.623),
    ("LHHPPAPPLPPP", "protein stability index", 0.695),
    ("PACFESCGLWGF", "protein stability index", 0.75),
]

----------
# System: Saccharomyces cerevisiae
# assay procedure: protein stability index of tFT-peptide fusion (C-terminal peptide) (PSI (0-1 scale)); higher = more stable (slower turnover)
# condition details: genetic background: das1 deletion; temperature: 30 C
As shown below, each of these sequences has a reported protein stability index value.

# residue sequence, protein stability index
records = [
    ("CMYTILRHKINN", 0.649),
    ("GWVQFVKAAVLF", 0.59),
    ("VLVVASLRFSFF", 0.197),
    ("SCFRFFFLFLFF", 0.282),
    ("CAGLLSVSFWLF", 0.44),
    ("LFFLSASFFFFF", 0.449),
    ("LLYHFCLFFFRE", 0.462),
    ("CPVSRHLLVLYW", 0.345),
    ("WGCTGGRGRLVC", 0.643),
    ("FFLFLFFFLRGS", 0.405),
    ("GGWFFWVGAWVV", 0.202),
    ("PFLLLVSPISSC", 0.301),
    ("WLTCSLVFNVFW", 0.406),
    ("ALCPPLPMLVVA", 0.156),
    ("FCTSSRLLYCSA", 0.206),
    ("LYYSVIFLFLSW", 0.232),
    ("IILRPQYVHYFL", 0.497),
    ("SCYDYVILLQLS", 0.435),
    ("CIHMNCSMMIIS", 0.168),
    ("GFAFFIGLSFAF", 0.459),
    ("TRVVSPNVILMC", 0.61),
    ("MSVLAFVCCLSG", 0.289),
    ("TPPLPTTPTLNS", 0.718),
    ("VCLWAIHLSGCW", 0.46),
    ("VWVISLCIGGVG", 0.241),
    ("LLAWLHTVQRVG", 0.659),
    ("HINRTIWARYQV", 0.643),
    ("ACGGGSNVHRAG", 0.657),
    ("PLSSHIPVHEAR", 0.699),
    ("GYRFSILSILRV", 0.513),
    ("FGLLLVLASALG", 0.318),
    ("FWWVGCGWCRWG", 0.602),
    ("AFFFCVVVLFSF", 0.171),
    ("NHKTIRIQNKSI", 0.64),
    ("LFVMVSVSGLVV", 0.159),
    ("HRDVISVVRNMS", 0.659),
    ("GREGETGSKAGR", 0.64),
    ("FLSFARSSCLWF", 0.657),
    ("FCRLTFCFFAFL", 0.499),
    ("LFIVTFIPVLFS", 0.374),
    ("VFYRPFFVLFFV", 0.265),
    ("GSVCVVCWELVV", 0.344),
    ("VNILFCLFFLLV", 0.419),
    ("LGRVSAKFFCVL", 0.646),
    ("SSAPPTLHTRPS", 0.662),
    ("VFFCLFWFFCSF", 0.482),
    ("VISGFVLVFRVR", 0.356),
    ("LVLELYRFARFG", 0.643),
    ("YHRKAILMCTFS", 0.443),
    ("SYVVVFVIFCVG", 0.206),
    ("CWILLFGCVWVG", 0.233),
    ("GGGWCVWMVWFG", 0.411),
    ("VCWCVVVLEFGL", 0.197),
    ("TTSHFCVVLVSV", 0.232),
    ("VVWIQRTVLSLI", 0.505),
    ("WGGIASLVASAA", 0.236),
    ("FRFSSLLYILLS", 0.316),
    ("LRVAWVCISIVA", 0.0876),
    ("WLFASCVFFWSS", 0.386),
    ("GILPIYNIISRL", 0.842),
    ("PALPTPPVSPSP", 0.256),
    ("IFIVLDFRCVSS", 0.256),
    ("YVFSPLSCWASV", 0.608),
    ("IHIFIIFRVQWK", 0.179),
    ("FWFLWAKMLLSC", 0.252),
    ("RKRTILVIIVVK", 0.234),
    ("DFWMLLFGIIFA", 0.389),
    ("VAFVVALSLIFL", 0.306),
    ("TVGVGWVWVGVL", 0.446),
    ("RLMLSWLALRRC", 0.601),
    ("ACVWVVALVWVF", 0.174),
    ("FFCLFCLSCWVL", 0.331),
    ("LWLFIVCWVGCV", 0.201),
    ("PWFSWLLYSFLF", 0.526),
    ("VLCFTSAYHRLV", 0.631),
    ("LLLRQVFSLGVF", 0.558),
    ("IIIRVTILCEQF", 0.146),
    ("VFVLFCAFVRAL", 0.286),
    ("LLFLVCFFPSIS", 0.311),
    ("WFFRLFFLFFSG", 0.4),
    ("VYRILFWFLCFG", 0.422),
    ("KVFWRPAWVAEV", 0.631),
]
